Test system: SNB-75 CNS
methodDescription: NCI-60 one-dose screen, 48 h (100 = growth as untreated, 0 = no growth, -100 = all killed)
measurementParameters: 10 µM unless noted
Compounds without any hit were thinned out: in the full panel of roughly 83,000, 20% have a hit. Calls of active or inactive are those of the source. How the source made its calls: active means growth percent below 10; inactive means the rest.
propertyName: growth

Reference set (3 entries):
(Q) # value lookup — system SNB-75 CNS, readout growth, item CCCCCCCCCCCCCCCC(=O)NS(=O)(=O)OC[C@H]1O[C@@H](n2cnc3c(N)ncnc32)[C@H](O)[C@@H]1O
(A) -41.6% (active)

(Q) # value lookup — system SNB-75 CNS, readout growth, item COc1ccc(-c2nn(-c3ccc(NC(=O)Nc4ccc(Cl)c(Cl)c4)cc3)cc2-c2ccncc2)cc1Cl
(A) 46.8% (inactive)

(Q) # value lookup — system SNB-75 CNS, readout growth, item CC1CCC(C(C)C)C(NN)C1 (configuration not stated)
(A) 103% (inactive)

***
(Q) # value lookup — system SNB-75 CNS, readout growth, item ClC1c2ccccc2CCc2ccccc21
(A) 81.6% (inactive)

(Q) # value lookup — system SNB-75 CNS, readout growth, item c1ccc(OCC[P+](c2ccccc2)(c2ccccc2)c2ccccc2)cc1
(A) 16.5% (inactive)

(Q) # value lookup — system SNB-75 CNS, readout growth, item COc1ccccc1S(=O)(=O)Nc1ccc2c3c(cc(-c4cnn(C5CC5)c4)nc13)C(=O)N2C
(A) 19.2% (inactive)

(Q) # value lookup — system SNB-75 CNS, readout growth, item COc1ccc2c(c1)/C(=C/c1c(-c3cc(OC)c(OC)c(OC)c3Br)nc3sccn13)C(=O)N2
(A) 109% (inactive)

----------
Test system: KM12 colon
methodDescription: NCI-60 one-dose screen, 48 h
measurementParameters: 10 µM unless noted
This is part of a sample that, as a whole, favours compounds with a hit. Of some 83,000 tested, about 20% had one in any assay. Active and inactive are the calls of the source. The calls were made as follows: active = growth percent below 10; inactive = the rest.
Log the outcome using a class from TRUE for active, FALSE for inactive

Solved entries:
(Q) Hi, sorry to bother you, what did the test record for O=C(Nc1ccc(-n2cc(-c3ccncc3)c(-c3ccc(O)c(Cl)c3)n2)cc1)c1ccc(Cl)c(Cl)c1 ?
(A) FALSE

(Q) Hi, sorry to bother you, what did the test record for COc1cccc(-c2nc3sccn3c2-c2ccnc(NCCNC(=O)c3ccccc3)n2)c1 ?
(A) FALSE

(Q) Hi, sorry to bother you, what did the test record for O=C(NNC(=O)c1ccc([N+](=O)[O-])cc1)c1ccc([N+](=O)[O-])cc1 ?
(A) FALSE

(Q) Hi, sorry to bother you, what did the test record for O=C1C(Cl)=C(Nc2ccccc2)C(=O)C(Cl)=C1Nc1ccccc1 ?
(A) FALSE

(Q) Hi, sorry to bother you, what did the test record for O=C(Nc1ccc(-n2ccc3c(NC(=O)c4ccccc4)nccc32)cc1)c1ccc(Cl)c(C(F)(F)F)c1 ?
(A) TRUE

***
(Q) Hi, sorry to bother you, what did the test record for CCc1c2cc(Cl)ccc2n2cc(Cc3ccccc3)[nH]c(=O)c12 ?
(A) FALSE

(Q) Hi, sorry to bother you, what did the test record for N#Cc1c2c(c(N)[nH]c1=O)C(=O)NC2(O)c1ccccc1 (stereo unspecified) ?
(A) FALSE

(Q) Hi, sorry to bother you, what did the test record for Cc1c(Cl)ccc2c(C(=O)Cl)cc(-c3ccccc3)nc12 ?
(A) FALSE

(Q) Hi, sorry to bother you, what did the test record for C=C1c2c(Cl)ccc(O)c2C(O)=C2C(=O)[C@]3(O)C(O)=C(C(N)=O)C(=O)[C@@H](N(C)C)[C@@H]3[C@@H](O)[C@H]12 ?
(A) TRUE

(Q) Hi, sorry to bother you, what did the test record for Cc1ccc(NC(=O)CN2CCOCC2)cc1Cl ?
(A) FALSE

(Q) Hi, sorry to bother you, what did the test record for Oc1ccc(Cl)cc1Sc1cc(Cl)ccc1O ?
(A) FALSE

(Q) Hi, sorry to bother you, what did the test record for COc1cc(C(=O)N2CCN(C(=O)c3cc(OC)c(OCc4ccccc4)cc3N)CC2)c(N)cc1OCc1ccccc1 ?
(A) FALSE

(Q) Hi, sorry to bother you, what did the test record for C=C1C(=O)O[C@H]2[C@H]1CC/C(COC(=O)c1ccccc1)=C\CC[C@@]1(C)O[C@@H]21 ?
(A) FALSE

(Q) Hi, sorry to bother you, what did the test record for COc1ccc(/C=C/C(=O)c2ccc(NC(=O)CSc3nnc(-c4cc(OC)c(OC)c(OC)c4)o3)cc2)cc1 ?
(A) TRUE

(Q) Hi, sorry to bother you, what did the test record for COc1cc(Cn2cc3c(c2)-c2onc(CO)c2CC3)cc(OC)c1OC ?
(A) FALSE

(Q) Hi, sorry to bother you, what did the test record for O=C(Nc1ccccc1F)Nc1ccccc1Cl ?
(A) FALSE
